system: cysteine desulfurase SufS (SaSufS) (Staphylococcus aureus, UniProt A0A0H2XHJ5)
Sequence (A0A0H2XHJ5 1-413): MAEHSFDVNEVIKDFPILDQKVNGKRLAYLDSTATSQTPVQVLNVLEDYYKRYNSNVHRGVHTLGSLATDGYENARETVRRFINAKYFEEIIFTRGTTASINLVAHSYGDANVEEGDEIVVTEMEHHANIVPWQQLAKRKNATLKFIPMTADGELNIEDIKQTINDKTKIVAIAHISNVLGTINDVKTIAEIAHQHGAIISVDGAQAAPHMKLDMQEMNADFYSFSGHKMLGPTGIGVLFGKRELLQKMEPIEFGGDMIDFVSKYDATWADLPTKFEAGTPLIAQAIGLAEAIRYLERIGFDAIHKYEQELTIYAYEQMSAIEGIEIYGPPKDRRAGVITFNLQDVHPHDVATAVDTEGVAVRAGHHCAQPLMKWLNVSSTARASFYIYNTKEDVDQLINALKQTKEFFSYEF
experiment: spectrophotometric […] nm assay after […] h incubation; UV-Vis of PLP adduct
Format: biochemical
parameter.measured: IC50 (µM)
Give bare numbers, in µM.

QUERY: # input molecule: `N[C@@H]1CON=C1O` ; wanted: its IC50
RESULT: 2170

FYI, the data here is from paper PMC11851464.
